# target entity: Voltage-gated inwardly rectifying potassium channel KCNH2 (Homo sapiens, UniProt Q12809)
# Sequence (Q12809 whole entry): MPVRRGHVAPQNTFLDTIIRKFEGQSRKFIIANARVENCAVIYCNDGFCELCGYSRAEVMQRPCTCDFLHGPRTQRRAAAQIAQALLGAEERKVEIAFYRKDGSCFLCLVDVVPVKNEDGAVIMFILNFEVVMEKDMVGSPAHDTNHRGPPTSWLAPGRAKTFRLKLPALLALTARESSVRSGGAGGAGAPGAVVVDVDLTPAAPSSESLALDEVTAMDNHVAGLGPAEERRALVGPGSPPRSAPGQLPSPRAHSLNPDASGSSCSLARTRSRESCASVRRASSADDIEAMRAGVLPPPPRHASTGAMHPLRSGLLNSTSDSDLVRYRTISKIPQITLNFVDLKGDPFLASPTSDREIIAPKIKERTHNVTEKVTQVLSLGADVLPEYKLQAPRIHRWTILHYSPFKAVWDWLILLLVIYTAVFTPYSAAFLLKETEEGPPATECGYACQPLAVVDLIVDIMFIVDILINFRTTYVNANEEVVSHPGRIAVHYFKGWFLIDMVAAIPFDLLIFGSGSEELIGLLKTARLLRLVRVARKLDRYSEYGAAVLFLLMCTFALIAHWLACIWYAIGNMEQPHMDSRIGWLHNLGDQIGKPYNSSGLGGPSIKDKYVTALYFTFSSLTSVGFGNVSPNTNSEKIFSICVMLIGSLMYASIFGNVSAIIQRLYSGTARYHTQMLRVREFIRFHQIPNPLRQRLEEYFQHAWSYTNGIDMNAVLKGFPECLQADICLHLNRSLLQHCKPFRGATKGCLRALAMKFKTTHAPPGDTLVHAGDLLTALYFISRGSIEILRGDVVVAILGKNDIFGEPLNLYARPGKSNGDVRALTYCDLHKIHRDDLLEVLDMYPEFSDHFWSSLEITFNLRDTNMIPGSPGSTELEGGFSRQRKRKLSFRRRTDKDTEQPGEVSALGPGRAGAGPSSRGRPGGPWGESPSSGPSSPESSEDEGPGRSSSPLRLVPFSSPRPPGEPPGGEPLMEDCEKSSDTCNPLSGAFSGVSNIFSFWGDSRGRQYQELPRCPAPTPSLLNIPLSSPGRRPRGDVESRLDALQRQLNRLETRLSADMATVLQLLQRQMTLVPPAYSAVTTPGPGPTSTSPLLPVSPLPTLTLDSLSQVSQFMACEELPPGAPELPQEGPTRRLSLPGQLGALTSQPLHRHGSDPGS
Below, each entry is listed with its recorded pIC50.
# pIC50: negative log10 of molar concentration; output just the value

Worked cases, answers included:
[
  {
    "chemical string": "Cc1cc(C)c2ccc3nc(-c4ccccc4)c(CN4CCCCC4)n3c2n1",
    "target entity": "Voltage-gated inwardly rectifying potassium channel KCNH2 (Homo sapiens, UniProt Q12809)",
    "readout number": 5.92
  },
  {
    "chemical string": "Cc1cc(C)c2ccc3nc(-c4ccccc4)c(CN4CCCC4)n3c2n1",
    "target entity": "Voltage-gated inwardly rectifying potassium channel KCNH2 (Homo sapiens, UniProt Q12809)",
    "readout number": 4.04
  }
]

Please turn your attention to the following entry.
Qu. Determine reported pIC50 for `COc1ccc(-c2nc3ccc4c(C)cc(C)nc4n3c2CN2CCC(C)CC2)cc1` ; test system: Voltage-gated inwardly rectifying potassium channel KCNH2 (Homo sapiens, UniProt Q12809).
Ans. 5.95

###

# target entity: hERG (KCNH2) (Homo sapiens, UniProt Q12809)
# Sequence (Q12809 whole entry): as above
# method description: Inhibition of hERG potassium […] at 6.25 uM relative to control
# Type: toxicity
readout kind: inhibition at 6.25 µM (%)
Hi! Could you send only the number? It should be in %, unit omitted.

Qu. Let me know recorded inhibition at 6.25 µM for `Cc1cc(C)c2ccc3nc(-c4ccc(F)cc4)c(CN4CCCCC4)n3c2n1` , thanks.
Ans. 11
